Provenance of the data: ChEMBL document CHEMBL1777782

assay: Inhibition of HCV 1b NS5B RNA dependent RNA polymerase by scintillation proximity assay; parameters: species or system Hepacivirus hominis
I'd be grateful if you could share measured pIC50 for these entries.
When answering, recall that pIC50 equals minus log10 of the concentration in mol/L, and write that number alone.

Which pIC50 value belongs to Cn1c(-c2ccccn2)c(C2CCCCC2)c2ccc(C(=O)NC(C)(C)C(=O)Nc3ccc(-c4nc(C(N)=O)cs4)cc3)cc21 ?
6.50

Would you kindly share the measured pIC50 for Cn1c(-c2ccccn2)c(C2CCCCC2)c2ccc(C(=O)NC3(C(=O)Nc4ccc(S(N)(=O)=O)cc4)CCC3)cc21 ?
6.51

# get_value(readout='pIC50', item= Cn1c(-c2ccccn2)c(C2CCCCC2)c2ccc(C(=O)N[C@@]3(C(=O)Nc4ccc(/C=C/C(=O)O)cc4)CCNC3)cc21 )
7.64

Bench note: what pIC50 did Cn1c(-c2ccccn2)c(C2CCCCC2)c2ccc(C(=O)NC3(C(=O)Nc4ccc(/C=C/C(=O)O)cc4)CCCCC3)cc21 show?
6.71

Name the recorded pIC50 for CC(C)(NC(=O)c1ccc2c(c1)nc(-c1ccoc1)n2C1CCCCC1)C(=O)Nc1ccc(/C=C/C(=O)O)cc1 .
7.40

Item Cc1c(C(=O)O)sc2ccc(NC(=O)C(C)(C)NC(=O)c3ccc4c(C5CCCCC5)c(-c5ccccn5)n(C)c4c3)cc12 has what recorded pIC50?
7.46

Entry Cn1c(C(N)=O)cc2cc(NC(=O)C(C)(C)NC(=O)c3ccc4c(C5CCCCC5)c(-c5ccccn5)n(C)c4c3)ccc21 has what pIC50?
6.78

* * *

assay: physchem; conditions: phosphate buffer, pH 7.2
outcome.measure: solubility thermodynamic at 24 h (µg/mL)
Report only the number, with the unit µg/mL understood.

# query: solubility thermodynamic at 24 h of entry Cn1c(-c2ccccn2)c(C2CCCCC2)c2ccc(C(=O)N[C@@]3(C(=O)Nc4ccc(/C=C/C(=O)O)cc4)CCCNC3)cc21
22

Which solubility thermodynamic at 24 h value belongs to Cn1c(C(=O)O)cc2cc(NC(=O)C(C)(C)NC(=O)c3ccc4c(C5CCCCC5)c(-c5ccccn5)n(C)c4c3)ccc21 ?
945

Look up solubility thermodynamic at 24 h: Cn1c(-c2ccccn2)c(C2CCCCC2)c2ccc(C(=O)NC3(C(=O)Nc4ccc(/C=C/C(=O)O)cc4)CCC3)cc21
6

What does the data say about its solubility thermodynamic at 24 h? Entry: Cn1c(-c2ccccn2)c(C2CCCCC2)c2ccc(C(=O)N[C@@]3(C(=O)Nc4ccc(-c5cncnc5)cc4)CCNC3)cc21
9

* * *

Would you kindly list Cmax for each of these molecules?
assay: Cmax in overnight-fasted Sprague-Dawley rat at 10, mg/kg, po administered by oral gavage; assay type: ADME, organism-based; settings: in vivo
Dear colleague, please return just the value in nM, with no unit written.

Consider the molecule shown here: Cn1c(-c2ccccn2)c(C2CCCCC2)c2ccc(C(=O)NC3(C(=O)Nc4ccc(C(=O)O)cc4)CCC3)cc21 What is its recorded Cmax?
500

I'd like to know its Cmax. The molecule in question is CN1CC[C@@](NC(=O)c2ccc3c(C4CCCCC4)c(-c4ccccn4)n(C)c3c2)(C(=O)Nc2ccc(/C=C/C(=O)O)cc2)C1
320

Query: Cmax; subject: Cn1c(-c2ccccn2)c(C2CCCCC2)c2ccc(C(=O)NC(C)(C)C(=O)Nc3ccc(CCC(=O)O)cc3)cc21
630

Can you look up the measured Cmax of Cn1c(-c2ccccn2)c(C2CCCCC2)c2ccc(C(=O)NC3(C(=O)Nc4ccc(/C=C/C(=O)O)cc4)CCC3)cc21 for me?
290
